Field: Therapeutic Index. Provide a value for each of the compounds that follow.
Test system: SKOV3 ovarian cancer cells
test_description: Therapeutic index (phototoxicity IC90 vs dark toxicity IC10)
Format: cell-based, human
Enter a number only.

*Q* Give the reported Therapeutic Index for `C=Cc1c(C)c2cc3nc(c4c5[nH]c(cc6nc(cc1[nH]2)C(C)=C6CC)c(C)c5C(=O)N(CCOCCOC)C4=O)[C@@H](CCC(=O)NCCC[P+](c1ccccc1)(c1ccccc1)c1ccccc1)[C@@H]3C` (system: SKOV3 ovarian cancer cells).
*A* 5674.44

*Q* Which measured Therapeutic Index belongs to C=Cc1c(C)c2cc3nc(c(C)c4[nH]c(cc5nc(cc1[nH]2)C(C)=C5CC)c(C)c4C(=O)O)[C@@H](CCC(=O)O)[C@@H]3C [Chlorin e4 disodium, chlorin e4 disodium, reference compound] , tested on SKOV3 ovarian cancer cells?
*A* 1.89

*Q* What is its Therapeutic Index for SKOV3 ovarian cancer cells? Entry: `CCC1=C(C)c2cc3[nH]c(cc4nc(c5c6[nH]c(cc1n2)c(C)c6C(=O)N(CCOCCOC)C5=O)[C@@H](CCC(=O)OC)[C@@H]4C)c(C)c3COC(=O)NCCC[P+](c1ccccc1)(c1ccccc1)c1ccccc1`
*A* 498.43

*Q* Param readout= Therapeutic Index; system= SKOV3 ovarian cancer cells; entry= `C=Cc1c(C)c2cc3nc(c4c5[nH]c(cc6nc(cc1[nH]2)C(C)=C6CC)c(C)c5C(=O)OC4=O)[C@@H](CCC(=O)NCCC[P+](c1ccccc1)(c1ccccc1)c1ccccc1)[C@@H]3C` ; returns value.
*A* 9976.00

====

Tested on: SKOV3 ovarian cancer cells
test_description: Inherent cytotoxicity (dark toxicity): % viable SKOV3 cells (AlamarBlue) without light
Assay type: cell-based, human
condition_info: 24 h incubation, no light
For each of the compounds below, state its Dark toxicity (IC10).
# unit: µM | format: bare number

*Q* Fill blank: measured Dark toxicity (IC10) of the compound `CCCCCCN1C(=O)c2c3nc(cc4[nH]c(cc5nc(cc6[nH]c2c(c6C)C1=O)C(CC)=C5C)c(COC(=O)NCCC[P+](c1ccccc1)(c1ccccc1)c1ccccc1)c4C)[C@@H](C)[C@@H]3CCC(=O)OC` is ____.
*A* 79.63

*Q* Name the reported Dark toxicity (IC10) value associated with the compound C=Cc1c(C)c2cc3nc(c(CC(=O)N[C@@H](CC(=O)O)C(=O)O)c4[nH]c(cc5nc(cc1[nH]2)C(C)=C5CC)c(C)c4C(=O)O)[C@@H](CCC(=O)O)[C@@H]3C [Talaporfin sodium, reference compound]
*A* 11.10

*Q* Look at this compound and give its reported Dark toxicity (IC10). `C=Cc1c(C)c2cc3nc(c4c5[nH]c(cc6nc(cc1[nH]2)C(C)=C6CC)c(C)c5C(=O)OC4=O)[C@@H](CCC(=O)NCCC[P+](c1ccccc1)(c1ccccc1)c1ccccc1)[C@@H]3C`
*A* 49.88

====

Tested on: SKOV3 ovarian cancer cells
test_description: Inherent cytotoxicity (dark toxicity): % viable SKOV3 cells (AlamarBlue) without light
Format: cell-based, human
condition_info: 24 h incubation, no light
measured_parameter: Dark toxicity (IC10) (µM)
# unit: µM | format: bare number

*Q* # lookup: Dark toxicity (IC10) of C=Cc1c(C)c2cc3nc(c4c5[nH]c(cc6nc(cc1[nH]2)C(C)=C6CC)c(C)c5C(=O)N(CCC[P+](c1ccccc1)(c1ccccc1)c1ccccc1)C4=O)[C@@H](CCC(=O)N(C)CCOCCOC)[C@@H]3C [Compound 4]
*A* 49.91

*Q* // lookup Dark toxicity (IC10) for CCCCCCN1C(=O)c2c3nc(cc4[nH]c(cc5nc(cc6[nH]c2c(c6C)C1=O)C(CC)=C5C)c(CN(C)C(=O)CCCC[P+](c1ccccc1)(c1ccccc1)c1ccccc1)c4C)[C@@H](C)[C@@H]3CCC(=O)OC [Compound 7]
*A* 49.40

*Q* Fill in: Dark toxicity (IC10) of CCC1=C(C)c2cc3[nH]c(cc4nc(c5c6[nH]c(cc1n2)c(C)c6C(=O)N(CCOCCOC)C5=O)[C@@H](CCC(=O)OC)[C@@H]4C)c(C)c3COC(=O)NCCC[P+](c1ccccc1)(c1ccccc1)c1ccccc1 [Compound 3] is ___
*A* 50.84

*Q* What value of Dark toxicity (IC10) has been recorded for this entry: C=Cc1c(C)c2cc3nc(c4c5[nH]c(cc6nc(cc1[nH]2)C(C)=C6CC)c(C)c5C(=O)N(CCOCCOC)C4=O)[C@@H](CCC(=O)NCCC[P+](c1ccccc1)(c1ccccc1)c1ccccc1)[C@@H]3C [Compound 6]
*A* 51.07
